Please respond with reported % Inhibition (FS) 1 μM for every item in the list.
- Target Or System: β-secretase(BACE) (Homo sapiens, UniProt P56817)
- Construct: purchased Panvera
- Sequence (P56817 46-501): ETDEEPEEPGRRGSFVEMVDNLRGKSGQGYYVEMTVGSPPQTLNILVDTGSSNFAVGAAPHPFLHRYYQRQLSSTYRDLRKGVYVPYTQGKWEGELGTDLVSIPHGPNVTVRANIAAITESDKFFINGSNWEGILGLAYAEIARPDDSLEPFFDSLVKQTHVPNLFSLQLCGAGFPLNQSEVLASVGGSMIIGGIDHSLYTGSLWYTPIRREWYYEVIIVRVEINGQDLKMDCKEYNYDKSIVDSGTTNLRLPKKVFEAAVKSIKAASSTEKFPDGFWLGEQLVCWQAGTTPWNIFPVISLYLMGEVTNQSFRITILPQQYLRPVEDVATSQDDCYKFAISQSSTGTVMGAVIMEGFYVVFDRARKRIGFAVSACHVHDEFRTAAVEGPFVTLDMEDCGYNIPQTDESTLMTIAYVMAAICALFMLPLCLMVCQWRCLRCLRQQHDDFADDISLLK
- Protocol Description: BACE FS1% Inhibition Assay
- Type: biochemical
- Condition Set: 1 μM test compound; FS1 substrate

What value of % Inhibition (FS) 1 μM on β-secretase(BACE) (Homo sapiens, UniProt P56817) does CCCC=Cc1ccc2c(c1)CN(CCNC(=O)c1cccc(C#N)c1)C(N)=N2 [Compound 568] have?
<30%

Also need CN(C)c1ccc(Nc2ccc3c(c2)CN(Cc2cccc(C(=O)N(C)C4CCCCC4)c2)C(N)=N3)cc1 [Compound 438] , thanks.
<30%

Also need CCCCC(CC)C(=O)NCCN1Cc2cc(-c3ccccc3Cl)ccc2N=C1N (stereo not shown) [Compound 655] , thanks.
79%

Also need CC1CCC(C(=O)NCCN2Cc3cc(Oc4ccccc4)ccc3N=C2N)CC1 (stereo not shown) [Compound 191] , thanks.
46%

Also need CN(C(=O)c1cccc(CN2Cc3cc(-c4ccc5[nH]ccc5c4)ccc3N=C2N)c1)C1CCCCC1 [Compound 175] , thanks.
<30%

Also need C=CCc1cccc(OC)c1Oc1ccc2c(c1)CN(Cc1cccc(C(=O)N(C)C3CCCCC3)c1)C(N)=N2 [Compound 481] , thanks.
<30%

Also need CCCCCCCCC(CCC(=O)N(C)C1CCCCC1)N1Cc2cc(Oc3ccccc3)ccc2N=C1N (stereo not shown) [Compound 210] , thanks.
<30%

Also need CC1CCN(C(=O)CCCC(CCC(=O)N2CCC(C)CC2)N2Cc3cc(Oc4ccccc4)ccc3N=C2N)CC1 (stereo not shown) [Compound 532] , thanks.
<30%

Also need CN(CCN1Cc2cc(Oc3ccccc3)ccc2N=C1N)C1CCCCC1 [Compound 429] , thanks.
<30%

Also need CCCC(CCC)C(=O)N1CCC(CN2Cc3cc(Oc4ccccc4)ccc3N=C2N)CC1 [Compound 526] , thanks.
36%

Also need CN(C(=O)c1cccc(CN2Cc3cc(Oc4ccccc4-c4ccccc4)ccc3N=C2N)c1)C1CCCCC1 [Compound 234] , thanks.
57%

Also need NC1=Nc2ccc(Oc3ccccc3)cc2CN1C(CNC(=O)C1CCCCC1)Cc1ccc(O)cc1 (stereo not shown) [Compound 614] , thanks.
<30%

Also need NC1=Nc2ccc(Oc3ccccc3)cc2CN1C1CCCCN(C(=O)C23CC4CC(CC(C4)C2)C3)C1 (stereo not shown) [Compound 550] , thanks.
<30%

Also need CN(C(=O)c1cccc(CN2Cc3cc(-c4cccc(C(=O)O)c4)ccc3N=C2N)c1)C1CCCCC1 [Compound 163] , thanks.
33%

Also need CC(C)(C)NS(=O)(=O)c1ccccc1-c1ccc2c(c1)CN(CCNC(=O)C1CCCCC1)C(N)=N2 [Compound 542] , thanks.
<30%

Also need CN(C(=O)c1cccc(CN2Cc3cc(Oc4ccccc4C(=O)N4CCCC4)ccc3N=C2N)c1)C1CCCCC1 [Compound 483] , thanks.
<30%

Also need NC1=Nc2ccc(Oc3ccccc3)cc2CN1CCNCC1CCCCC1 [Compound 427] , thanks.
26%

Also need COc1cccc(COc2ccc3c(c2)CN(Cc2cccc(C(=O)N(C)C4CCCCC4)c2)C(N)=N3)c1 [Compound 514] , thanks.
<30%

Also need COc1ccc(F)cc1-c1ccc2c(c1)CN(CCNC(=O)C1CCCCC1)C(N)=N2 [Compound 631] , thanks.
<30%

Also need CN1CCCC1CCNC(=O)c1cccc(CN2Cc3cc(Oc4ccccc4)ccc3N=C2N)c1 (stereo not shown) [Compound 222] , thanks.
<30%

Also need Cc1cc(C)cc(Oc2ccc3c(c2)CN(Cc2cccc(C(=O)N(C)C4CCCCC4)c2)C(N)=N3)c1 [Compound 228] , thanks.
49%

Also need NC1=Nc2ccc(Oc3ccccc3)cc2CN1Cc1cccc(CNC(=O)C2CCCCC2)c1 [Compound 306] , thanks.
<30%

Also need CC(C)(C)C(=O)NCCN1Cc2cc(-c3ccccc3Cl)ccc2N=C1N [Compound 653] , thanks.
82%

Also need CN(C(=O)c1cccc(CN2Cc3cc(Nc4ccc(C5CCCCC5)cc4)ccc3N=C2N)c1)C1CCCCC1 [Compound 437] , thanks.
<30%

Also need CN(C(=O)c1cccc(CN2Cc3cc(Oc4ccccc4CC(N)=O)ccc3N=C2N)c1)C1CCCCC1 [Compound 235] , thanks.
46%

Also need NC1=Nc2ccc(Oc3ccccc3)cc2CN1Cc1cccc(C(=O)NCCc2ccc(S(N)(=O)=O)cc2)c1 [Compound 188] , thanks.
<30%

Also need NC1=Nc2ccc(Oc3ccccc3)cc2CN1Cc1cccc(NC(=O)C2CCCCC2)c1 [Compound 286] , thanks.
<30%

Also need CCCC(=O)NCCN1Cc2cc(-c3cncnc3)ccc2N=C1N [Compound 569] , thanks.
<30%

Also need CC(=O)Nc1ccc(Sc2ccc3c(c2)CN(Cc2cccc(C(=O)N(C)C4CCCCC4)c2)C(N)=N3)cc1 [Compound 417] , thanks.
<30%

Also need CN(C)c1cccc(Oc2ccc3c(c2)CN(Cc2cccc(C(=O)N(C)C4CCCCC4)c2)C(N)=N3)c1 [Compound 479] , thanks.
<30%

Also need CC1CCC(N(C(=O)c2cccc(CN3Cc4cc(Oc5ccccc5)ccc4N=C3N)c2)C2CCC(C)CC2)CC1 (stereo not shown) [Compound 187] , thanks.
<30%

Hello, the source for this data is patent US8383637B2, in case you need it.
